system: F. graminearum CBS 185.32; assay type: cell-based, Fusarium graminearum
REPORTED_PROPERTY: DON production

CGNFLKRTC(CH3)ICVKK [TickCore3-CH3-2 Ox]    significant increase
CGNFLKRTCIC(CH3)VKK [TickCore3-CH3-3 Ox]    significant increase
